Source: PubChem BioAssay

biological target: Voltage-gated potassium channel subunit beta-2 (Rattus norvegicus) (UniProt P62483); assay: KvBeta enzyme negative modulators, primary screen, biochemical, NADPH fluorescence (AID 622); conditions: recombinant KvBeta, 4-cyanobenzaldehyde reduction, at 10 µM, active compounds read high;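 also: slope of raw intensity against log time taken from 70 to 1610 s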
Sequence (P62483 whole entry, looked up): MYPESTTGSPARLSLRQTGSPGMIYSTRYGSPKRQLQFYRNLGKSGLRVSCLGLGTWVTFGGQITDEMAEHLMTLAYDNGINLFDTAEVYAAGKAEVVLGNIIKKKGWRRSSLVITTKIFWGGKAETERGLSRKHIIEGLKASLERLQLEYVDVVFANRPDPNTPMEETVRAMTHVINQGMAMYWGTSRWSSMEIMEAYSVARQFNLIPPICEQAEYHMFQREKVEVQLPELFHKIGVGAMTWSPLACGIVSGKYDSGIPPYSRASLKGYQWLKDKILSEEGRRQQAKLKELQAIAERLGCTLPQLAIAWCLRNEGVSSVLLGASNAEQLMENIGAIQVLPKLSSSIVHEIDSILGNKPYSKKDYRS
Rule: fluorescence slope of -0.5 or more gives criterion met; anything lower gives criterion not met.

COc1ccc(C2NC(=O)NC(O)(C(F)(F)F)C2C(=O)c2ccc(F)cc2)cc1 (centres undefined) | criterion met
COc1ccc(OC)c(C2C(C(=O)c3sc(C)nc3C)=C(O)C(=O)N2CCN2CCOCC2)c1 (centres undefined) | criterion met
CC12CN3CC(C)(CN(C1)C3c1ccc(Br)cc1O)C2 (centres undefined) | criterion met

Inquiry: Check this compound for fluorescence slope at or above -0.5: `Cc1ccc(N2CCN(S(=O)(=O)N(C)C)CC2)c(C)c1`
Reply text: criterion not met

Inquiry: Given the entry `COc1cccc(OC)c1OCCNCCO` , answer whether its fluorescence slope meets or surpasses -0.5.
Reply text: criterion met

Inquiry: Answer whether fluorescence slope of `Cc1nc(=O)c(-c2ccccc2)c(C)n1-c1ccc(S(N)(=O)=O)cc1` is greater than or equal to -0.5.
Reply text: criterion met

Inquiry: Determine whether measured fluorescence slope meets or exceeds -0.5 for `COc1cccc(-c2nc(CS(=O)(=O)CC(=O)N3CCc4ccccc4C3)c(C)o2)c1`
Reply text: criterion not met

Inquiry: API: above_or_equal(metric=fluorescence slope, cutoff=-0.5) for item CC1(C)C2CCC1(C)C(OC(=O)CC(=O)O)C2 (centres undefined)
Reply text: criterion met

Inquiry: // inclusive: fluorescence slope at least -0.5? input: `CCN(CC)Cc1csc(C(N)=O)c1`
Reply text: criterion not met

Inquiry: Threshold query (fluorescence slope >= -0.5) on `Cc1nnc(SCC(=O)NCc2ccccc2)s1`
Reply text: criterion met

Inquiry: Reported fluorescence slope at or above -0.5? N#C/C(C(=O)NCc1ccco1)=C1/SC(Cc2ccc(Cl)cc2)C(=O)N1c1ccccc1 (centres undefined)
Reply text: criterion met
